The values you see were collected from patent US7291638B2.

- EXPERIMENT: Pharmacokinetics test in rats (oral; plasma concentration of the compound of formula 2 by HPLC)
- Type: in vivo, rat
- CONDITION: male, Sprague-Dawley, rat, plasma, po, 50 mg/kg, male Sprague-Dawley rats, 50 mg/kg, vehicle DMSO, read-out: Cmax
ENDPOINT: Cmax (ng/mL)
The answer is to be given in ng/mL; state only the numeric part.

Given the entry COc1cc(C(=O)N(C(C)C)C(C)C)ccc1OCCCCOc1ccc2c(N)noc2c1 [Formula 2, reference compound] , report its measured Cmax.
470

* * *

- EXPERIMENT: Pharmacokinetics test in rats (oral; plasma concentration of the compound of formula 2 by HPLC)
- Type: in vivo, rat
- CONDITION: male, Sprague-Dawley, rat, plasma, po, 50 mg/kg, male Sprague-Dawley rats, 50 mg/kg, vehicle DW + T (distilled water + tween 80), read-out: Tmax
ENDPOINT: Tmax
Quick note: number first, unit second.

// returns reported Tmax for input COc1cc(C(=O)N(C(C)C)C(C)C)ccc1OCCCCOc1ccc2c(N)noc2c1 [Formula 2, reference compound]
1.5 h

* * *

- EXPERIMENT: Pharmacokinetics test in rats (oral; plasma concentration of the compound of formula 2 by HPLC)
- Assay type: in vivo, rat
- CONDITION: male, Sprague-Dawley, rat, plasma, po, 50 mg/kg, male Sprague-Dawley rats, 50 mg/kg, vehicle DW + T (distilled water + tween 80), read-out: Cmax
ENDPOINT: Cmax (ng/mL)
Expressed in ng/mL, but write only the number.

Return reported Cmax; argument: COc1cc(C(=O)N(C(C)C)C(C)C)ccc1OCCCCOc1ccc2c(N)noc2c1 [Formula 2, reference compound]
80

* * *

- EXPERIMENT: Pharmacokinetics test in rats (oral; plasma concentration of the compound of formula 2 by HPLC)
- Format: in vivo, rat
- CONDITION: male, Sprague-Dawley, rat, plasma, po, 50 mg/kg, male Sprague-Dawley rats, 50 mg/kg, vehicle DMSO, read-out: Tmax
ENDPOINT: Tmax (min)
Give just the number in min; leave the unit off.

Query (compound): COc1cc(C(=O)N(C(C)C)C(C)C)ccc1OCCCCOc1ccc2c(N)noc2c1 [Formula 2, reference compound] ; field requested: Tmax
10.2

* * *

- EXPERIMENT: Pharmacokinetics test in rats (oral; plasma concentration of the compound of formula 2 by HPLC)
- Format: in vivo, rat
- CONDITION: rat, plasma, male Sprague-Dawley rats, 50 mg/kg, vehicle DMSO
ENDPOINT: half-life (min)
Answer with a number only, understood to be in min.

Bench note: what half-life did COc1cc(C(=O)N(C(C)C)C(C)C)ccc1OCCCCOc1ccc2c(N)noc2c1 [Formula 2, reference compound] show?
19.2
